target: Cat-S in human purified B-cells (Homo sapiens, UniProt P25774)
Construct: Human B-cells were isolated from whole blood; endogenous in cells; host or cells: primary human CD19+ B cells from whole blood of healthy volunteers
Sequence (P25774 115-331): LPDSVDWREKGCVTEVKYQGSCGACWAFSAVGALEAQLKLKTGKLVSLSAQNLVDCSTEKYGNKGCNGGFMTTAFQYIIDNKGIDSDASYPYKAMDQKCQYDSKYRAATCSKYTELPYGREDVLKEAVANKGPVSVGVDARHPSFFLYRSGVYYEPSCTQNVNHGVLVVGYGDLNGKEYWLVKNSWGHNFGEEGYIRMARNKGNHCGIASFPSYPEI
assay_overview: lip10 (p10) accumulation assay in human purified B-cells (p10 ELISA)
Assay type: cell-based
condition_notes: donor D2; read-out: EC50 of p10 upregulation in human B-cells, donor D2
quantity: pEC50
FYI, pEC50 means -log10 of a concentration in mol per litre.

Find the recorded pEC50 belonging to Cn1cc(-c2ccc(S(=O)(=O)[C@@H]3C[C@@H](C(=O)NC4(C#N)CC4)N(C(=O)C4(C(F)(F)F)CC4)C3)c(C(F)(F)F)c2)cn1 and report it. 7.80

###

assay_overview: Acute in vivo pharmacodynamics: splenic p10 induction after oral gavage
Design: species or system BALB/c mice
condition_notes: BALB/c, mouse, plasma; oral gavage 1 mg/kg; read-out: plasma concentration of the inhibitor at maximal p10 induction
quantity: concentration at 7 h
A complete answer gives the number followed by the unit.

Data request, read-out concentration at 7 h, for Cn1cc(-c2ccc(S(=O)(=O)[C@@H]3C[C@@H](C(=O)NC4(C#N)CC4)N(C(=O)C4(C(F)(F)F)CC4)C3)c(C(F)(F)F)c2)cn1 [RO5459072] 17 nM

###

target: Cat-S in human purified B-cells (Homo sapiens)
Construct: Human B-cells were isolated from whole blood; endogenous in cells; host or cells: primary human CD19+ B cells from whole blood of healthy volunteers
assay_overview: lip10 (p10) accumulation assay in human purified B-cells (p10 ELISA)
Assay type: cell-based
condition_notes: donor D4; read-out: EC50 of p10 upregulation in human B-cells, donor D4
quantity: EC50

Which EC50 reading was recorded for the compound Cn1cc(-c2ccc(S(=O)(=O)[C@@H]3C[C@@H](C(=O)NC4(C#N)CC4)N(C(=O)C4(C(F)(F)F)CC4)C3)c(C(F)(F)F)c2)cn1 [RO5459072] ? 9.4 nM
